Assign IC50 to each entry below.
- assay: Cytotoxicity against ponasterone A-induced human RKOp27 cells with ectopic inducible expression of CDK inhibitor-kip1 after 48 hrs by XTT assay
- Format: functional, cell-based
- test conditions: RKOp27, 48 h

Recorded IC50, per entry:
COc1ccc(N=C2c3cccc(Cl)c3C(=O)c3c(Cl)cccc32)cc1O :: > 9 µM
COc1cc2c(c(OC)c1OC)-c1ccc(OC)c(=O)cc1[C@@H](NC(C)=O)CC2 [COLCHICINE] :: > 10 µM
COC(=O)Nc1nc2cc(C(=O)c3cccs3)ccc2[nH]1 [NOCODAZOLE] :: > 10 µM

Working through the 2 compounds below one at a time, give IC50 for each.
1. COc1ccc(N=C2c3ccccc3C(=O)c3ccccc32)cc1O
2. CC(=O)O[C@H]1C(=O)[C@@]2(C)[C@H]([C@H](OC(=O)c3ccccc3)[C@]3(O)C[C@H](OC(=O)[C@H](O)[C@@H](NC(=O)c4ccccc4)c4ccccc4)C(C)=C1C3(C)C)[C@]1(OC(C)=O)CO[C@@H]1C[C@@H]2O [PACLITAXEL]

Response:
> 9 µM
> 3 µM
